Data origin, for the record: patent US20240285614A1

Biological target: RNR (RNR1:RNR2 1:1) (Homo sapiens, UniProt P23921+P31350)
Assay: RNR enzyme activity, rapid-fire mass spectrometry (RF/MS) assay
Conditions: RNR 50 nM, 1:1 (RNR1:RNR2); CDP 5 μM; ATP 1 mM; 37° C., 45 min; compounds screened up to 50 μM
pIC50: −log10 of the molar value.
metric name: pIC50

Reported pIC50 ( CN(c1ccc(O)cc1)C1CCN(S(=O)(=O)c2ccc3cc[nH]c3c2)C1 (racemic) [compound 20] ) = ≥ 7.30

Reported pIC50 ( O=S(=O)(c1ccc2cc[nH]c2c1)N1C[C@H]2CC[C@@H](C1)N2c1ccc(O)cc1 [compound 26] ) = 6.30 to 7.00

Reported pIC50 ( O=S(=O)(c1cccc2[nH]ccc12)N1CCN(c2ccc(O)cc2)CC1 [compound 7] ) = 7.00 to 7.30

Reported pIC50 ( O=S(=O)(c1ccc2cc[nH]c2c1)N1CC(N(c2ccc(O)cc2)C2CC2)C1 [compound 19] ) = ≥ 7.30

---

Biological target: RNR (RNR1:RNR2 1:1) (Homo sapiens, UniProt P23921+P31350)
Test: RNR enzyme activity, rapid-fire mass spectrometry (RF/MS) assay
Settings: RNR 50 nM, 1:1 (RNR1:RNR2); CDP 5 μM; ATP 1 mM; 37° C., 45 min; compounds screened up to 50 μM
Experimental: A rapid-fire mass spectrometry (RF/MS) assay was used to assess RNR enzyme activity using a 384 well plate and a robotic platform. The plate layout included two validated reference compounds (Triapine (3-AP) and Hydroxyurea (HU)): • A dose response in duplicate, top concentration: 5 μM (3-AP) and 250 μM (HU), semi-log • dilutions. • Spike wells in triplicate randomly spotted at four concentrations: • 250 μM, 100 μM, 30 μM and 2 μM for HU • 5 μM, 2 μM, 0.6 μM and 0.04 μM for 3-AP […]
pIC50: −log10 of the molar value.
metric name: pIC50

CN(c1ccc(O)cc1)C1CN(S(=O)(=O)c2ccc3cc[nH]c3c2)C1; ≥ 7.30
CN(C1CCN(c2ccc(O)cc2)CC1)S(=O)(=O)c1ccc2cc[nH]c2c1; ≥ 7.30
O=S(=O)(c1ccc2cc[nH]c2c1)N1C[C@H]2CCC[C@@H](C1)N2c1ccc(O)cc1; ≥ 7.30
O=S(=O)(c1ccc2cc[nH]c2c1)N1C[C@H]2COC[C@@H](C1)N2c1ccc(O)cc1; ≥ 7.30
O=S(=O)(c1ccc2[nH]ccc2c1)N1CCN(c2ccc(O)cc2)CC1; 6.30 to 7.00

Fill in: RNR (RNR1:RNR2 1:1) (Homo sapiens, UniProt P23921+P31350) pIC50 for "CN(c1ccc(O)cc1)C1CCN(S(=O)(=O)c2ccc3cc[nH]c3c2)CC1" = 7.00 to 7.30

Fill in: RNR (RNR1:RNR2 1:1) (Homo sapiens, UniProt P23921+P31350) pIC50 for "O=S(=O)(c1cc2ccccc2[nH]1)N1CCC2(CCN(c3ccc(O)cc3)CC2)C1" = 6.30 to 7.00

Fill in: RNR (RNR1:RNR2 1:1) (Homo sapiens, UniProt P23921+P31350) pIC50 for "O=S(=O)(c1ccc2cc[nH]c2c1)N1CC[C@H](N(Cc2cccnc2)c2ccc(O)cc2)C1" = 6.30 to 7.00

---

Biological target: RNR (RNR1:RNR2 1:1) (Homo sapiens, UniProt P23921+P31350)
Assay: RNR enzyme activity, rapid-fire mass spectrometry (RF/MS) assay
Assay type: biochemical
Settings: RNR 50 nM, 1:1 (RNR1:RNR2); CDP 5 μM; ATP 1 mM; 37° C., 45 min; compounds screened up to 50 μM
pIC50: −log10 of the molar value.
metric name: pIC50

Study these solved cases before continuing.
Cn1ccc2cc(S(=O)(=O)N3CCN(c4ccc(O)cc4)CC3)cnc21; 6.30 to 7.00
O=S(=O)(c1ccc2cc[nH]c2c1)N1CCN(c2ccc(O)cc2)CC1; 7.00 to 7.30

Reported pIC50 ( "CN(C1CN(c2ccc(O)cc2)C1)S(=O)(=O)c1ccc2cc[nH]c2c1" ) = 6.30 to 7.00

Reported pIC50 ( O=S(=O)(c1ccc2cc[nH]c2c1)N1CCC(Oc2ccc(O)cc2)C1 (centres unmarked) ) = ≥ 7.30

Reported pIC50 ( "O=S(=O)(NC1CN(c2ccc(O)cc2)C1)c1ccc2cc[nH]c2c1" ) = 7.00 to 7.30

Reported pIC50 ( "O=S(=O)(c1ccc2cc[nH]c2c1)N1CCC(Oc2ccc(O)cc2)CC1" ) = ≥ 7.30

Reported pIC50 ( "CCN(c1ccc(O)cc1)C1CN(S(=O)(=O)c2ccc3cc[nH]c3c2)C1" ) = ≥ 7.30

Reported pIC50 ( CN(c1ccc(O)cc1)C1CN(S(=O)(=O)c2ccc3cc[nH]c3c2)C2(CC2)C1 (racemic) ) = ≥ 7.30

---

Target: RNR (RNR1:RNR2 1:1) (Homo sapiens, UniProt P23921+P31350)
Sequence (P23921 1-792): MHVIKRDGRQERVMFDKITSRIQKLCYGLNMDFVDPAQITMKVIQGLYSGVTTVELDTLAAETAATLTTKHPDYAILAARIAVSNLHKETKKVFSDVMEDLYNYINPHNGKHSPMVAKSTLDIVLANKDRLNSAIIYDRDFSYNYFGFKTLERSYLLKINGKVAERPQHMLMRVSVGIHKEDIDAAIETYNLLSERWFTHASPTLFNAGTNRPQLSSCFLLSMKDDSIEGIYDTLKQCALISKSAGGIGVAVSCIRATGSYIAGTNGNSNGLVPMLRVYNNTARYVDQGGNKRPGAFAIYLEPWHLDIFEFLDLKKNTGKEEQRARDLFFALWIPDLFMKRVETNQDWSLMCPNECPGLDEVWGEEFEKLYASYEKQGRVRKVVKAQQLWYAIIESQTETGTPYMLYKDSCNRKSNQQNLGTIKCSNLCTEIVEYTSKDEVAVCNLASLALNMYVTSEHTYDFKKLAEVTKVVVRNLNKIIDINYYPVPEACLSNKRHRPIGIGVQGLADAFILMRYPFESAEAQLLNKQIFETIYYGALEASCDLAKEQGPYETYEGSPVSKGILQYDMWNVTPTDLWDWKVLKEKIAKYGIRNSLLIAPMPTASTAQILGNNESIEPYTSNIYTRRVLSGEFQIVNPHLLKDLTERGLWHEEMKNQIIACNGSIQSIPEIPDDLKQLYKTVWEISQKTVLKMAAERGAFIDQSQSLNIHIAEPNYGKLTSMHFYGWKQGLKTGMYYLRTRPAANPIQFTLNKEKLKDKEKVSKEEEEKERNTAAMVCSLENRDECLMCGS
Sequence (P31350 1-389): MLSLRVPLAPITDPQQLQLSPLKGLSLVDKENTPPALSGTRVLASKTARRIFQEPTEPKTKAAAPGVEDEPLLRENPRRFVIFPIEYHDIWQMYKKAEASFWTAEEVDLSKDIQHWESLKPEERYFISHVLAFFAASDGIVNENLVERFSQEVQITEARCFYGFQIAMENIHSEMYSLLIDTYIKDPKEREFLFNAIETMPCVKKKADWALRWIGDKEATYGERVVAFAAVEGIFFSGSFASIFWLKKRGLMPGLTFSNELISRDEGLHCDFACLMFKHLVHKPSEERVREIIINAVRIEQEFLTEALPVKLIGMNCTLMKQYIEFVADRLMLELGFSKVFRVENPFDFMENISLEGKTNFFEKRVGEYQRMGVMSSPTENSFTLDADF
Experiment: RNR enzyme activity, rapid-fire mass spectrometry (RF/MS) assay
Details: RNR 50 nM, 1:1 (RNR1:RNR2); CDP 5 μM; ATP 1 mM; 37° C., 45 min; compounds screened up to 50 μM
pIC50: −log10 of the molar value.
# maps each entry to its pIC50

Study these solved cases before continuing.
CN(c1ccc(O)cc1)C1CCN(S(=O)(=O)c2ccc3[nH]ccc3c2)C1 (racemic); ≥ 7.30
Cn1ccc2ccc(S(=O)(=O)N3CCN(c4ccc(O)cc4)CC3)cc21; 6.30 to 7.00
Cn1ccc2cccc(S(=O)(=O)N3CCN(c4ccc(O)cc4)CC3)c21; ≥ 7.30

--- query ---
Reported pIC50 ( O=S(=O)(c1ccc2cc[nH]c2c1)N1CC(O)C(Nc2ccc(O)cc2)C1 (stereo not shown) ) = 7.00 to 7.30

---

# maps each entry to its IC50
Biological target: RNR (RNR1:RNR2 1:1) (Homo sapiens, UniProt P23921+P31350)
Assay: RNR enzyme activity, rapid-fire mass spectrometry (RF/MS) assay
Conditions: RNR 50 nM, 1:1 (RNR1:RNR2); CDP 5 μM; ATP 1 mM; 37° C., 45 min; compounds screened up to 50 μM
Method: A rapid-fire mass spectrometry (RF/MS) assay was used to assess RNR enzyme activity using a 384 well plate and a robotic platform. The plate layout included two validated reference compounds (Triapine (3-AP) and Hydroxyurea (HU)): • A dose response in duplicate, top concentration: 5 μM (3-AP) and 250 μM (HU), semi-log • dilutions. • Spike wells in triplicate randomly spotted at four concentrations: • 250 μM, 100 μM, 30 μM and 2 μM for HU • 5 μM, 2 μM, 0.6 μM and 0.04 μM for 3-AP […]

CN(CC1CN(S(=O)(=O)c2ccc3cc[nH]c3c2)C1)c1ccc(O)cc1; ≤ 50 nM

Reported IC50 ( C[C@@H]1C[C@H](N(C)c2ccc(O)cc2)CN1S(=O)(=O)c1ccc2cc[nH]c2c1 (racemic) ) = ≤ 50 nM

Reported IC50 ( "Cn1ccc2ccc(S(=O)(=O)N3CCC4(CCN(c5ccc(O)cc5)CC4)C3)cc21" ) = 100 to 500 nM

Reported IC50 ( C[C@@H]1CN(S(=O)(=O)c2ccc3cc[nH]c3c2)C[C@H]1N(C)c1ccc(O)cc1 (racemic) ) = ≤ 50 nM
